Hi there, I'd appreciate the recorded Reduction for every entry that follows.
# Tested on: Canis familiaris
# assay.procedure: Antisecretory activity was evaluated in adult mongrel dog after iv administration at 5 mg/kg of dose, expressed as reduction of gastric output
# Format: functional, Canis lupus familiaris, Stomach

>>> reported("CNC(=O)N(C)C1c2cc([N+](=O)[O-])ccc2Oc2ncccc21 (stereo not drawn)")
"<30%"
>>> reported("CN(C)C(=O)N(C)C1c2ccccc2Oc2ncccc21 (stereo not drawn)")
"<30%"

Proceed to the following item.
INPUT: What measured Reduction is associated with CNC(=O)N(C)C1c2ccc(C(F)(F)F)cc2Oc2ncccc21 (stereo not drawn) on Canis familiaris?
OUTPUT: <30%

Where do the numbers come from? From ChEMBL document CHEMBL1121679.
